biological target: Human OTUB1 wild-type (Homo sapiens, UniProt Q96FW1); construct: His tag (N); made in house; host or cells: E. coli BL21-CodonPlus (DE3)-RIPIL; test: Covalent modification of OTUB1 (adduct formation), mass spectrometry-based assay (OTUB1 covalent binders; selected CFTR or cGAS based bivalent compounds); format: binding; settings: covalent adduct formation with OTUB1 protein
Sequence (Q96FW1 whole entry): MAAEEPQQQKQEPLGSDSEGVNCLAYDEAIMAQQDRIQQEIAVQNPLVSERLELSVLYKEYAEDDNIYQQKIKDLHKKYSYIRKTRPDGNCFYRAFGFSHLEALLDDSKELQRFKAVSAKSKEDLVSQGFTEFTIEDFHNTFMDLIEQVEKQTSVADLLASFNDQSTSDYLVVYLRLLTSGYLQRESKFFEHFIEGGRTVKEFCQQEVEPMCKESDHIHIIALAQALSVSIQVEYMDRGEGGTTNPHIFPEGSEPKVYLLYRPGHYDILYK
experimental.endpoint: % of OTUB1 modified (%)
Quick reminder: number only, in %, skip the unit.

Some compounds with recorded % of OTUB1 modified:
Cc1cccc(N2CC3CCC(C2)N3C(=O)CCl)n1 [XS165-121] | 100
Cc1ccc(N2CC3(CN(C(=O)/C=C/CN(C)C)C3)C2)s1 [XS185-3] | 35
CN(C)C(C)(C)C#CC(=O)N1CC(C(=O)Nc2cc3ccccc3s2)C1 [XS224-107] | 60
C=C(C#N)CN1CCN(c2ccc(C)s2)C(=O)C1 [XS185-87] | 1

Now let's try a different one.
Form field % of OTUB1 modified for item Cc1ccc(N2CCN(C(=O)/C=C/CN3CCCC3)CC2=O)s1 [XS165-154] on Human OTUB1 wild-type (Homo sapiens, UniProt Q96FW1): 70

----------
target: Human OTUB1 wild-type (Homo sapiens); construct: His tag (N); made in house; host or cells: E. coli BL21-CodonPlus (DE3)-RIPIL; assay: Covalent modification of OTUB1 (adduct formation), mass spectrometry-based assay (OTUB1 covalent binders; selected CFTR or cGAS based bivalent compounds); format: binding; settings: covalent adduct formation with OTUB1 protein
Respond with rule met for % of OTUB1 modified values of 70% and above, rule not met for values below.

Some entries whose results are on file:
Cc1ccc(C(=O)N2CC3CC(C2)N3C(=O)/C=C/CN(C)C)o1 | rule met
Cc1cc(N2CCN(C(=O)/C=C/CN(C)C)CC2=O)sc1C | rule met
CN(C)C/C=C/C(=O)N1C2CC1CN(C(=O)c1ccccc1)C2 | rule not met
CC(=O)N1CCC(C(=O)N2CC3CC(C2)N3C(=O)/C=C/CN(C)C)CC1 | rule not met
CC1CCC(C(=O)N2CC3CC(C2)N3C(=O)/C=C/CN(C)C)C1 (centres unmarked) | rule not met

Now consider the entry below.
In: Quick check: does Cc1cc(N2CCN(C(=O)/C=C/CN(C)C)CC2=O)cs1 have % of OTUB1 modified greater than or equal to 70%?
Out: rule met

----------
molecular target: Human OTUB1 wild-type (Homo sapiens, UniProt Q96FW1); construct: His tag (N); made in house; host or cells: E. coli BL21-CodonPlus (DE3)-RIPIL; assay: Covalent modification of OTUB1 (adduct formation), mass spectrometry-based assay (OTUB1 covalent binders; selected CFTR or cGAS based bivalent compounds); format: binding; conditions: covalent adduct formation with OTUB1 protein
Recorded % of OTUB1 modified determines the group label, using class 0: < 20%; class 1: ≥ 20% and < 80%; class 2: ≥ 80%

Some entries whose results are on file:
CC(C)c1ccc(NC(=O)C2CCN(C(=O)CCl)CC2)s1 | class 2
CN(C)C/C=C/C(=O)N1C2CCC1C(=O)N(c1csc3ccccc13)C2 (centres unmarked) | class 2
CN(C)C/C=C/C(=O)N1CC2(CC(C(=O)Nc3cc4c(s3)CCCC4)C2)C1 | class 0
Cc1ccc(N2CC3CCC(C2=O)N3C(=O)/C=C/CN(C)C)[nH]1 (centres unmarked) | class 2
CC(=O)N1CCC(c2ccc(C(=O)N3CC4CC(C3)N4C(=O)/C=C/CN(C)C)s2)CC1 | class 2

In: Which bin should I file CN(C)C/C=C/C(=O)N1CC(NC(=O)c2cc3c(s2)CCCC3)C1 under?
Out: class 1

In: Which bin should I file Cc1ccc(C(=O)N2CCC(NC(=O)/C=C/CN(C)C)CC2)s1 under?
Out: class 0

In: Which bin should I file CN(C)C/C=C/C(=O)N1C2CC1CN(C(=O)C1CCCCC1)C2 under?
Out: class 1

In: Which bin should I file COc1ccc2c(c1)CN(C(=O)/C=C/CN(C)C)C2 under?
Out: class 0

In: Which bin should I file CCCC(=O)N1CC2CC(C1)N2C(=O)/C=C/CN(C)C under?
Out: class 1

In: Which bin should I file Cc1ccc(C(=O)N2CC3CC(C2)N3C(=O)C#CCN(C)C)s1 under?
Out: class 2
